# gcPBM binding intensity (ln) values compiled below
tested on: PfAP2-LT AP2 domain (GST-tagged); experiment: gcPBM binding intensity (ln(normalized median fluorescence intensity)); higher = stronger DNA binding
Over roughly 25,000 sequences, “ln(normalized median fluorescence intensity)” has its median near 8.9; the highest 2% begin near 10. For the sample, the highest values were picked, then their nearest neighbours and some sequences at random.

{"columns": ["Query sequence", "gcPBM binding intensity (ln)"],
 "data": [
  ["CAAAAATAAACTATAGTACACACTTATTATTATGAA [CACACA_site2702]", 8.8],
  ["AAAAAAAACACGCGCACACACACACCCACCCACCGA [CACACA_site2206]", 10.3],
  ["AAAAAAAAAAAAAAAACACACATATATGTATATATA [CACACA_site3276]", 8.92],
  ["GCATCGATCAAACATACACACATGGTTAATAAAAAT [CACACA_site8651]", 9.24],
  ["ATATATATATAAATATGTACATATATACATATATAC [XGTACX_site2374]", 8.89],
  ["TTATTTTCTTTTTCTTGTACACACATAATATGGATG [XGTACX_site1481]", 9.17],
  ["TTAAAAAATCACAACACACACACACCCAAAAAAAAA [CACACA_site1445]", 9.77],
  ["TTAAAAAATCACAACACACACACACGCAAAAAAAAA [CACACA_site6793]", 10.1],
  ["ATATATATATATATATGTACATATTTCTCCATTTTT [XGTACX_site2869]", 9.61],
  ["TATACTCAGAAACACACACACACACCCAAAAAAAAA [CACACA_site4434]", 10.1],
  ["TATAACACACAATGATGTACATTACATTATTTTTTA [XGTACX_site2076]", 8.79],
  ["AAAAAAACAACATGCACACGCACACCCAAAAAAAGC [CACACA_site72]", 9.84],
  ["AAATTATGTGCCAATACACACACACCGATATATATA [CACACA_site8050]", 9.92],
  ["TATACATACTCACCCACACACAAAAAAAAAAAAAAA [CACACA_site862]", 9.28],
  ["GGTAAGTACGACTTGACACACATACCCATATATATA [CACACA_site4837]", 9.2],
  ["TAATTATGTACTATTATACACACGTTTAATTGTAAA [CACACA_site206]", 8.74],
  ["TATAATGATGATGATAGTACGTATTAGTATAAAAAA [XGTACX_site9]", 8.81],
  ["TTTGAGATAAAAGACTGTACTTAGAATGTATAAAAA [XGTACX_site203]", 8.48],
  ["TATACAGGAATATTTTTACACACTAATAATTATAAA [CACACA_site8477]", 8.73],
  ["AAAAAAGCAATATGATGTACATTTACTTTGTGAAAG [XGTACX_site4450]", 8.73]
]}

Where these numbers come from: the supplement of paper PMC11417369
